Listed here are compounds together with their documented GHS category.
Assay: GHS categories as the set defines them, by LD50: 1 up to 5, 2 up to 50, 3 up to 300, 4 up to 2000, 5 above 2000 mg/kg
Details: rat; in vivo; po

compound	GHS category
CC1=C(C(=O)O)N2C(=O)[C@@H](NC(=O)[C@H](N)C3=CCC=CC3)[C@H]2SC1	5
CNC(=O)Oc1cc(C)c(S(C)(=O)=O)c(C)c1	4
CCCC1CCCC(=O)O1 (stereo unspecified)	5
CCC1COC(Cn2cncn2)(c2cc3ccccc3o2)O1 (stereo unspecified)	4
CCOc1cc(N)c(Cl)cc1C(=O)NCC1CN(Cc2ccc(F)cc2)CCO1 (stereo unspecified)	5
OC[C@H]1O[C@@H](n2cnc3c(O)ncnc32)[C@H](O)[C@@H]1O	5
CCCc1c(Cc2ccc(-c3oc(Br)cc3-c3nn[nH]n3)cc2)c(=O)nc2nc[nH]n12	4
CC(C)=CCC(C#N)(CCN1CCOCC1)c1cccc2ccccc12 (stereo unspecified)	4
CN1CC(O)C2=C/C(=N/NC(N)=O)C(=O)C=C21 (stereo unspecified)	5
CC(C)CCCC(C)CCO (stereo unspecified)	5
CC1N=C(c2ccccc2Cl)c2c(ccc(NC(=O)NCCO)c2Br)N(C)C1=O (stereo unspecified)	5

====

Experiment: GHS categories as the set defines them, by LD50: 1 up to 5, 2 up to 50, 3 up to 300, 4 up to 2000, 5 above 2000 mg/kg
Conditions: rat; in vivo; po

compound	GHS category
COC(=O)C(F)(F)C(F)(F)C(F)(F)OC(F)=C(F)F	3
Oc1ccc(C(O)CN2CCN(C(c3ccccc3)c3ccccc3)CC2)cc1 (centres undefined)	5
CN(C)CCSc1nc2ccccc2cc1-c1ccccc1	4
CC1(C(O)CO)OC(c2ccc(Cl)cc2)OC2COC(c3ccc(Cl)cc3)OC21 (centres undefined)	5
CN1C(=O)C(O)N=C(c2ccccc2Cl)c2cc(Cl)ccc21 (centres undefined)	5
CCCCCCCCCCCCC	5
O=C=NS(=O)(=O)c1ccccc1C(F)(F)F	4
CC(SC(=O)c1cccs1)C(=O)NCC(=O)O (centres undefined)	5
COC(OC)C(C)Cc1ccc(C(C)C)cc1 (centres undefined)	5
COC(=O)c1ccccc1S(=O)(=O)NC(=O)Nc1nc(C)nc(OC)n1	5
CC(C)(C1CCC(O)CC1)C1CCC(O)CC1 (centres undefined)	5
CCOC(=O)c1cnn(-c2cccc(C)c2)c1C#N	4
COc1ccc(-c2ccc(C#N)cc2)cc1	5
CCN(CC)CCC#N	4
CCN(C(=O)CCCCc1nnnn1-c1ccccc1)C1CCCCC1	4
O=C(O)CN(CC(=O)O)CC(O)CN(CC(=O)O)CC(=O)O	5
Cc1ccc(N=Nc2c(O)c(C(=O)O)cc3ccccc23)c(S(=O)(=O)O)c1	5
COc1cc(OC)c(NC(=O)c2cc3ccccc3cc2O)cc1Cl	5
CCCCCC(=Cc1ccccc1)C(OCC)OCC	5
COC(=O)C1=C(C)NC(C)=C(C(=O)OC2COC3C(O)COC23)C1c1cccc([N+](=O)[O-])c1 (centres undefined)	5
CC(=O)Nc1ccc(C(C[N+](=O)[O-])Sc2ccc(C)cc2)cc1 (centres undefined)	5
CC(CCO)CCCC(C)(C)O (centres undefined)	5
COc1ccc2c(c1)CCN(c1ccccc1)C2c1ccccc1N (centres undefined)	4
CCCCCC(=O)OCCCC	5
CCCCCCCCCCCCOCCOCCOCCOCCOCCOCCOCCOCCOCCOCCOCCOCCOCCOCCOCCOCCOCCOCCOCCOCCOCCOCCOCCO	5
Cc1cc(C)c(C=O)c(C)c1	5
CC1(C)CC2(CC(C)(C)c3ccc(O)cc32)c2cc(O)ccc21	5
CN1C(C(=O)Nc2ccccc2)=C(O)c2ccccc2S1(=O)=O	5
CCC(=O)OCCC(C)CCC=C(C)C (centres undefined)	5
C=C[Si]1(C)O[Si](C)(C=C)O[Si](C)(C=C)O[Si](C)(C=C)O1 (centres undefined)	5
CCCCCCCC(=O)N(CCO)CCO	5
CNc1cccc(NC(=O)C(=O)O)c1C#N	5
CS(=O)(=O)c1ccc(C(=O)C2C(=O)CCCC2=O)c(Cl)c1	5
CC(CO)CCCC1CCCCC1 (centres undefined)	5
CCCCCCCCCCCC(=O)N(CC)CC	5
CCCc1nc2ccnn2c(N2CCOCC2)c1Cc1ccc(-c2ccccc2-c2nn[nH]n2)cc1	4
NC(=O)Nc1ccc(Cl)c(Cl)c1	4
CCOC(=O)C(=O)Nc1cc(SCCOC)ncn1	4
CC1=CCC(C=CC(C)C(C)O)C1(C)C (centres undefined)	4
CC(=O)c1ccc2cc(CC(=O)O)ccc2c1	5
CC12CCC(=O)C=C1CCC1C3CCC4(CCC(=O)O4)C3CCC12C (centres undefined)	5
C=C1CC[C@H]2O[C@]2(C)CC[C@@H]2[C@@H]1CC2(C)C	5
CC(=O)OCC1=CC[C@@]23C[C@@H]1C(C)(C)[C@@H]2CC[C@H]3C	5
CCOC(=O)C1N=C(c2ccccc2F)c2cc(Cl)ccc2NC1=O (centres undefined)	5
CCC=CCC=CCC=CCC=CCC=CCCCCCC(=O)O	5
CC(=O)O[C@]1(C(C)=O)CC[C@H]2[C@@H]3C[C@H](C)C4=CC(=O)CC[C@]4(C)[C@H]3CC[C@@]21C	5
O=C(c1ccccc1)C1CCCCC1	5
CNC(=O)Oc1ccc(C)c2sccc12	3
CNc1nc(Nc2ccccc2)nc(Nc2ccc(C=Cc3ccc(Nc4nc(NC)nc(Nc5ccccc5)n4)cc3S(=O)(=O)O)c(S(=O)(=O)O)c2)n1	5

====

Assay: GHS categories as the set defines them, by LD50: 1 up to 5, 2 up to 50, 3 up to 300, 4 up to 2000, 5 above 2000 mg/kg
Details: rat; in vivo; po
List of GHS category values.
value kind: GHS category

compound	numeric result
CON=C(C(=O)OC)c1ccccc1CON=C(C)c1cccc(C(F)(F)F)c1	5
O=C(O)c1cc(Nc2ccccc2)c(C(=O)O)cc1Nc1ccccc1	5
Cc1cc(C(=O)Nc2ccccc2C(F)(F)F)n[nH]1	5
Nc1ccc2c(c1)C(=O)c1ccccc1C2=O	5
CC1=C(NC(=O)O)/C(=N/C(=O)CN)C=CC1(NC(=O)O)c1cccc(C2=CC=C/C(=N\C(=O)CN)C2C)c1 (stereo unspecified)	5
CCO[Si](OCC)(OCC)N(CC)CC	4
CCSP(=O)(SCC)SCC	3
COC1=C(C(=O)O)N2C(=O)[C@@H](NC(=O)[C@H](N)C3=CCC=CC3)[C@H]2SC1	5
C[C@@H]1O[C@@H]1P(=O)(O)O	5
CC(C)C1(C)N=C(c2ncccc2C(=O)O)NC1=O (stereo unspecified)	5
CC(=O)c1ccc(S(=O)(=O)NC(=O)NC2CCCCC2)cc1	5

====

Assay: GHS categories as the set defines them, by LD50: 1 up to 5, 2 up to 50, 3 up to 300, 4 up to 2000, 5 above 2000 mg/kg
Conditions: rat; in vivo; po
value kind: GHS category

molecule	value kind	result
O=[N+]([O-])c1ccc(CCc2ccc([N+](=O)[O-])cc2)cc1	GHS category	5
CNC(C)C(O)c1ccc(NS(C)(=O)=O)cc1 (configuration not stated)	GHS category	5
COc1ccc(C2(O)c3ccccc3C3=NCCN32)cc1 (configuration not stated)	GHS category	4
CCC1COC(=O)O1 (configuration not stated)	GHS category	5
C=C(C)C(=O)OCCOC(=O)CC(C)=O	GHS category	5
O=c1cc(-c2ccccc2)c2ccc(OCCCN3CCC(c4ccccc4)CC3)cc2[nH]1	GHS category	4
Nc1ccc(C(=O)c2ccccc2)cc1O	GHS category	5
CCCCCCCCC(O)CCO (configuration not stated)	GHS category	5
Nc1c(Br)cc([N+](=O)[O-])cc1Br	GHS category	4
O=C(OCc1cncs1)Oc1ccc([N+](=O)[O-])cc1	GHS category	5
COc1ccc(N(CCCC(=O)O)C(=O)c2ccc(Cl)cc2)c(OC)c1	GHS category	4
CC(Br)(CBr)COc1c(Br)cc(C(C)(C)c2cc(Br)c(OCC(C)(Br)CBr)c(Br)c2)cc1Br (configuration not stated)	GHS category	5

====

Test: GHS categories as the set defines them, by LD50: 1 up to 5, 2 up to 50, 3 up to 300, 4 up to 2000, 5 above 2000 mg/kg
Settings: rat; in vivo; po
Recorded GHS category, one value per entry.

compound	GHS category
O=S(=O)(O)CC(O)CNC1CCCCC1 (configuration not stated)	5
CCCCCCCCCCCCCCCC(=O)OC[C@H](O)[C@H]1OC(=O)C(O)=C1O	5
Nc1nc(COc2ccc(Cl)cc2)nc(NCCc2ccccc2)n1	5
CCCCCCCCCCCCCC(=O)OC(C)C	5
COCCCCC(=O)c1ccc(C(F)(F)F)cc1	5
CSCC[C@H](NC(=O)CCSC(=O)c1ccccc1)C(=O)OC(C)C	5
CCN(CC)C(=O)CCCn1nnnc1C	4
CCC=CCC=O	5
CN1CCN(c2c(F)cc3c(=O)c(C(=O)O)cn(CCF)c3c2F)CC1	5
CCCCCOC(=O)CCCCC	5
CCC(C)CCC(C)(CC)OC(C)=O (configuration not stated)	5
NC[C@H]1O[C@H](O[C@H]2[C@H](O)[C@@H](O[C@H]3O[C@H](CO)[C@@H](O)[C@H](N)[C@H]3O)[C@H](N)C[C@@H]2N)[C@H](O)[C@@H](O)[C@@H]1O	5
O=C(O)C[C@H](NCCN[C@@H](CC(=O)O)C(=O)O)C(=O)O	5
CC(CCC(=O)O)C(=O)O (configuration not stated)	4
Fc1ccccc1C1=NCC(=S)N(CC(F)(F)F)c2ccc(Cl)cc21	5
CC(C)OC(=O)[C@@H](C)N(C(=O)c1ccccc1)c1ccc(F)c(Cl)c1	5
CCCCOC(=O)CCC(C)=O	5
CC/C(=C(/c1ccc(OCCN(C)C)cc1)c1cccc(O)c1)c1ccccc1	5
CC(C)C1=CC23CCC4C(C)(C(=O)N5CCNCC5)CCCC4(C)C2CC1C1C(=O)OC(=O)C13 (configuration not stated)	5
CCN(C(=O)CCCSc1nnnn1C)c1ccccc1	4
CCC1(CC)C(=O)N2Cc3ccccc3CN2C1=O	5
CC(C)CC(=O)O[C@@H]1C[C@@H]2CC[C@@]1(C)C2(C)C (racemic)	5
CC(=O)C(C)O (configuration not stated)	5
CCn1cc(C(=O)O)c(=O)c2cc(F)c(N3CCNCC3)nc21	5
COCC(=O)O[C@]1(CCN(C)CCCc2nc3ccccc3[nH]2)CCc2cc(F)ccc2[C@@H]1C(C)C	4
CCN(CCCCCCOC(=O)c1ccc(OC)c(OC)c1)C1CCc2ccccc2C1 (configuration not stated)	5
O=C(O)CNC(c1ccccc1)c1ccc(F)cc1 (configuration not stated)	4
CCOCCC(C)CCC=C(C)C (configuration not stated)	5
C[SiH]1O[SiH](C)O[SiH](C)O[SiH](C)O[SiH](C)O1 (configuration not stated)	5
CC1CC(NC(N)=O)NC(=O)N1 (configuration not stated)	5
CCCCOC(=O)c1ccc(-n2nc(OCCN(CC)CC)c3ccccc32)cc1	4
O=C1c2ccccc2C(=O)C1c1ccc2ccccc2n1	5
CC(C)=CCC/C(C)=C/COC=O	5
CCC(C)c1cc(S(=O)(=O)O)cc(-n2nc3ccccc3n2)c1O (configuration not stated)	5
Cc1cccc2ncc(C(=O)Nc3ccc(Cl)cc3)c(=O)n12	3
CC1Oc2cc(C(=O)c3cccs3)ccc2N(C)C1=O (configuration not stated)	5
C=CCN1CCC23c4c5ccc(O)c4OC2C(=O)CCC3(O)C1C5 (configuration not stated)	4
O=S(=O)(O)c1cc(Nc2nc(Nc3ccccc3)nc(N(CCO)CCO)n2)ccc1/C=C/c1ccc(Nc2nc(Nc3ccccc3)nc(N(CCO)CCO)n2)cc1S(=O)(=O)O	5
C#CCOc1cc(-n2nc(C(C)(C)C)oc2=O)c(Cl)cc1Cl	5
B12B3B4B1C234	5
CCCC(C)C=O (configuration not stated)	5
CCCCOC(=O)[C@@H](C)Oc1ccc(Oc2ccc(C#N)cc2F)cc1	5
Cc1cccc(C)c1NC(=O)C1CCCCN1C (configuration not stated)	5
COc1cc(NC(=O)C(/N=N/c2cc(OC)c(S(=O)(=O)Nc3ccccc3)cc2OC)C(C)=O)c(OC)cc1Cl (configuration not stated)	5
CCN(CC)CCc1nc(-c2ccccc2)no1	5
Nc1nc2c(ncn2[C@@H]2O[C@H](COP(=O)(O)O)[C@@H](O)[C@H]2O)c(=O)[nH]1	5
Nc1nc2cc([N+](=O)[O-])ccc2o1	4
